# TARGET_UNDER_TEST: Soluble guanylate cyclase (Homo sapiens, UniProt O75343+P33402+Q02108+Q02153)
# Sequence (Q02153 whole entry): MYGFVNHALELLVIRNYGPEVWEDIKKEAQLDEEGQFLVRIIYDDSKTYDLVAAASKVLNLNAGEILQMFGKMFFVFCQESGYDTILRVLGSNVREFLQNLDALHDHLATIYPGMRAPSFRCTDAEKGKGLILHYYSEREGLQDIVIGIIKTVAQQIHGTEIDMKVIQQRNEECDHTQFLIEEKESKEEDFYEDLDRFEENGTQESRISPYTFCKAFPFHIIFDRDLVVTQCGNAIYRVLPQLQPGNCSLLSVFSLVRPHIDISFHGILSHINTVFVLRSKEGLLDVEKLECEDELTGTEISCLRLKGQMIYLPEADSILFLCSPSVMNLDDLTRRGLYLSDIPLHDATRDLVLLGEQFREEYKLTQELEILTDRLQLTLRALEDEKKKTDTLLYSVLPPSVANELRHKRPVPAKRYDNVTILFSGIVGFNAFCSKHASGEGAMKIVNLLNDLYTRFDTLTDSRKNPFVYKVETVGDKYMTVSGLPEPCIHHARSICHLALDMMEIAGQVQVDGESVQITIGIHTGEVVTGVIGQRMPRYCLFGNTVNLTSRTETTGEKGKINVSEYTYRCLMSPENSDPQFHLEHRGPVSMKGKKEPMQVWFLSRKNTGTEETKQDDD
# Sequence (O75343 whole entry): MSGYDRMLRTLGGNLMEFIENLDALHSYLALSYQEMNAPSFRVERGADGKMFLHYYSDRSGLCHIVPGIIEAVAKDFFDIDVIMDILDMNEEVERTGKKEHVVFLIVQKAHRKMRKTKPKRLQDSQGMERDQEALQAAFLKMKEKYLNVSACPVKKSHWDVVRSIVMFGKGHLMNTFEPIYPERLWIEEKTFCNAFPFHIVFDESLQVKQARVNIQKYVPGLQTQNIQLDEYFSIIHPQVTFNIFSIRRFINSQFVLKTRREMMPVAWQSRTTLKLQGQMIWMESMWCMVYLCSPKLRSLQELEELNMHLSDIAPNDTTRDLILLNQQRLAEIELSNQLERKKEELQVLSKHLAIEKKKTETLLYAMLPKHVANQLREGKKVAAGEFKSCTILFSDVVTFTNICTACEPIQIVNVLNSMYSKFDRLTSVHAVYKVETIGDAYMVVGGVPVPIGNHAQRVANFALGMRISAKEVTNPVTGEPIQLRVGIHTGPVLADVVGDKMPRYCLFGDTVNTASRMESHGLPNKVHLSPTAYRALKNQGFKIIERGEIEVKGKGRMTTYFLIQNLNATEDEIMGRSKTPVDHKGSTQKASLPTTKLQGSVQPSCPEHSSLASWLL
# Sequence (P33402 whole entry): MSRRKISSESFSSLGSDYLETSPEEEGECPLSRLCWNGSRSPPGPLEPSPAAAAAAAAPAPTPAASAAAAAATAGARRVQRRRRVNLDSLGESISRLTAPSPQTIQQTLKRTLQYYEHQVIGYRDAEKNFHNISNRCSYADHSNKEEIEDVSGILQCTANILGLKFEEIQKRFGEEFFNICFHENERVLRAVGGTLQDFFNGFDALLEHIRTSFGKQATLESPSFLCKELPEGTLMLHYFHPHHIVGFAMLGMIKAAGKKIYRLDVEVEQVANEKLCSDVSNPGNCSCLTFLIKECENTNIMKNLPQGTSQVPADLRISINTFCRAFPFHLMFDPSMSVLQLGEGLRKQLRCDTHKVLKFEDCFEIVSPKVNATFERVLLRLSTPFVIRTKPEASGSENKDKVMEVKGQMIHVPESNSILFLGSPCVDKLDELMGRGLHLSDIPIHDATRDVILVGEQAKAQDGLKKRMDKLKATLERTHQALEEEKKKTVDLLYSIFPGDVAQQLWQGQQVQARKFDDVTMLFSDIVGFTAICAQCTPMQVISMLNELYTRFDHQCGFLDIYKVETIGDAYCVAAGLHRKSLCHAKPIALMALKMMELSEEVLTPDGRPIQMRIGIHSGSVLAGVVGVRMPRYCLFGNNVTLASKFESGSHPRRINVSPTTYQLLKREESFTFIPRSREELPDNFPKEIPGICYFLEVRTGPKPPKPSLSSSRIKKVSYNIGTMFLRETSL
# Sequence (Q02108 whole entry): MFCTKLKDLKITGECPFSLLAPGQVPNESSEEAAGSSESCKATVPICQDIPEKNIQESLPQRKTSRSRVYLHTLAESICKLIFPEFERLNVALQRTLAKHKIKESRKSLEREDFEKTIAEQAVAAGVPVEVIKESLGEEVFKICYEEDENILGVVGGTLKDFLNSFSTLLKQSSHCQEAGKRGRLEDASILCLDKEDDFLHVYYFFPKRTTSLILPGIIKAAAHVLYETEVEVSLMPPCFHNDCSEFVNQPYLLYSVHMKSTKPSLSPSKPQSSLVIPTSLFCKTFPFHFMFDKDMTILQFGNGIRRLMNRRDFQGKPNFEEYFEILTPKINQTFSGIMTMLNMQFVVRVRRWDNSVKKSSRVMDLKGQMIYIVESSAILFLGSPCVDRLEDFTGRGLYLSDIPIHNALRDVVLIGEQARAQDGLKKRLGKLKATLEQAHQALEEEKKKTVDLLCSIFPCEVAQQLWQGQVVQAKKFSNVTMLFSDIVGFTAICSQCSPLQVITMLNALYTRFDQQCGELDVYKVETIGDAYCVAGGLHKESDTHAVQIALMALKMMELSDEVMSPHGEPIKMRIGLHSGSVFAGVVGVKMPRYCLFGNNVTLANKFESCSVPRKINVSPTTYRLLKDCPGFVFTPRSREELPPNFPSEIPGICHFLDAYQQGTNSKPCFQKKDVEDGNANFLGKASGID
# PROTOCOL_DETAILS: Activation of SGC in HEK293 cells assessed as cGMP production after 20 mins by LC-MS/MS analysis in presence of NO-donor DETA-NONOate
For each record, write down the corresponding EC50.
Numbers only, in nM.

Observe how each entry below is paired with its result.
CN(c1ccccc1)S(=O)(=O)c1cnc(-c2cc(-c3ccon3)n(Cc3ccccc3F)n2)nc1O: 730
Oc1nc(-c2cc(-c3ncco3)n(Cc3ccccc3F)n2)ncc1F: 1500
Oc1nc(-c2cc(-c3ccon3)n(Cc3sccc3F)n2)ncc1F: 280
N#Cc1cnc(-c2cc(-c3ccon3)n(Cc3ccccc3F)n2)nc1O: 500

Could you report EC50 for every entry in the following list?
1. O=S(=O)(c1ccccc1)c1cnc(-c2cc(-c3ccon3)n(Cc3ccccc3F)n2)nc1O
2. Cc1cccc(Cn2nc(-c3ncc(F)c(O)n3)cc2-c2ccon2)c1F
3. Nc1ccnc(-c2cc(-c3ccon3)n(Cc3ccccc3F)n2)n1
4. O=c1[nH]c(-c2cc(-c3ccon3)n(Cc3cccc(Cl)c3F)n2)ncc1F
5. O=c1[nH]c(-c2cc(-c3ccon3)n(Cc3ccc(F)cc3F)n2)ncc1F
6. O=c1[nH]c(-c2cc(-c3ccon3)n(CCC(F)(F)C(F)(F)F)n2)ncc1F
7. O=S(=O)(c1ccc(Cl)cc1)c1cnc(-c2cc(-c3ccon3)n(Cc3ccccc3F)n2)nc1O
8. Oc1nc(-c2cc(-c3ccon3)n(Cc3ccccc3F)n2)ncc1Cl

**A:**
350
240
240
380
530
1500
160
590

Batch of 4 molecules: report EC50 for each.
1. O=c1[nH]c(-c2cc(-c3ccsn3)n(Cc3ccccc3F)n2)ncc1F
2. Oc1nc(-c2cc(-c3ccon3)n(Cc3ccccc3)n2)ncc1F
3. Oc1nc(-c2cc(-c3ccon3)n(Cc3cccc(F)c3F)n2)ncc1F
4. CS(=O)(=O)c1cnc(-c2cc(-c3ccon3)n(Cc3ccccc3F)n2)nc1O

**A:**
180
880
370
900

* * *

Please respond with reported log10 microsomal CLint at 2 µM for every item in the list.
# PROTOCOL_DETAILS: Intrinsic clearance in human liver microsomes assessed per mg of protein at 2 uM after 10 to 30 mins by LC/MS/MS analysis in presence of NADPH
# Type: ADME
# EXPERIMENTAL_SETUP: read-out: CLH
A difference of one corresponds to tenfold microsomal CLint at 2 µM; all values are log10 with microsomal CLint at 2 µM in µL/min/mg.

O=S(=O)(c1ccc(Cl)cc1)c1cnc(-c2cc(-c3ccon3)n(Cc3ccccc3F)n2)nc1O: 0.78
O=C(Nc1cnc(-c2cc(-c3ccon3)n(Cc3ccccc3F)n2)nc1O)c1ccccc1: 1.15
Oc1nc(-c2cc(-c3ccon3)n(Cc3cccc(F)c3F)n2)ncc1F: 0.85
CS(=O)(=O)c1cnc(-c2cc(-c3ccon3)n(Cc3ccccc3F)n2)nc1O: 1.18
Oc1nc(-c2cc(-c3ccon3)n(CCC(F)(F)F)n2)ncc1F: 1.36
N#Cc1cc(-c2ncc(F)c(=O)[nH]2)nn1Cc1ccccc1F: 0.85
O=c1[nH]c(-c2cc(-c3ccon3)n(Cc3cccc(Cl)c3F)n2)ncc1F: 0.70
CN(C)S(=O)(=O)c1cnc(-c2cc(-c3ccon3)n(Cc3ccccc3F)n2)nc1O: 0.90
Oc1nc(-c2cc(-c3ccccn3)n(Cc3ccccc3F)n2)ncc1F: 0.95
O=c1[nH]c(-c2cc(-c3ccon3)n(CCC(F)(F)C(F)(F)F)n2)ncc1F: 0.78

Parameter requested: log10 microsomal CLint at 2 µM. Apply to each item below.
1. Oc1nc(-c2cc(-c3ccon3)n(Cc3ncccc3F)n2)ncc1F
2. Cc1cccc(Cn2nc(-c3ncc(F)c(O)n3)cc2-c2ccon2)c1F
3. CC(C)(O)c1cnc(-c2cc(-c3ccon3)n(Cc3ccccc3F)n2)nc1O
4. N#Cc1cnc(-c2cc(-c3ccon3)n(Cc3ccccc3F)n2)nc1O
5. COc1nc(-c2cc(-c3ccon3)n(Cc3ccccc3F)n2)ncc1F
6. CN(c1ccccc1)S(=O)(=O)c1cnc(-c2cc(-c3ccon3)n(Cc3ccccc3F)n2)nc1O
7. Oc1nc(-c2cc(-c3ccon3)n(Cc3ccccc3)n2)ncc1F
8. Oc1nc(-c2cc(-c3ccon3)n(Cc3sccc3F)n2)ncc1F

**A:**
1: 1.18; 2: 0.90; 3: 0.90; 4: 0.90; 5: 1.30; 6: 2.25; 7: 1.04; 8: 1.04

Batch request: log10 microsomal CLint at 2 µM per item, same order as input.
1. Oc1nc(-c2cc(-c3cocn3)n(Cc3ccccc3F)n2)ncc1F
2. O=c1[nH]c(-c2cc(-c3ccsn3)n(Cc3ccccc3F)n2)ncc1F
3. O=S(=O)(c1ccccc1)c1cnc(-c2cc(-c3ccon3)n(Cc3ccccc3F)n2)nc1O

**A:**
1: 0.60; 2: 2.23; 3: 1.26

* * *

# PROTOCOL_DETAILS: Volume of distribution at steady state in Beagle dog at 0.1 mg/kg, iv or 1 mg/kg, po by LC-MS/MS analysis
# Assay type: ADME, organism-based, Canis lupus familiaris
# EXPERIMENTAL_SETUP: in vivo, read-out: Vdss
QUANTITY: Vd (L/kg)
Numbers only, in L/kg.

**Q:** Given the entry Oc1nc(-c2cc(-c3ccon3)n(Cc3ccccc3F)n2)ncc1F , report its measured Vd.
**A:** 0.095

* * *

# PROTOCOL_DETAILS: Tmax in CD-1 mouse at 0.1 mg/kg, iv or 1 mg/kg, po by LC-MS/MS analysis
# Format: ADME, organism-based
# EXPERIMENTAL_SETUP: in vivo
QUANTITY: Tmax (h)
One number for each entry, in h.

**Q:** Look up Tmax for this molecule: Oc1nc(-c2cc(-c3ccon3)n(Cc3ccccc3F)n2)ncc1F
**A:** 1.7

* * *

# PROTOCOL_DETAILS: AUC(0 to infinity) in CD-1 mouse at 0.1 mg/kg, iv or 1 mg/kg, po by LC-MS/MS analysis
# Type: ADME, organism-based
# EXPERIMENTAL_SETUP: in vivo
QUANTITY: AUC(0-inf) (ng·h/mL)
Answers are plain numbers, in ng·h/mL.

**Q:** Reported AUC(0-inf) for Oc1nc(-c2cc(-c3ccon3)n(Cc3ccccc3F)n2)ncc1F : what is it?
**A:** 4500

* * *

Assignment: determine reported microsomal CLint at 2 µM for the given compounds.
# PROTOCOL_DETAILS: Intrinsic clearance in Sprague-Dawley rat liver microsomes assessed per mg of protein at 2 uM after 10 to 30 mins by LC/MS/MS analysis in presence of NADPH
# Assay type: ADME
# EXPERIMENTAL_SETUP: read-out: CLH
One number for each entry, in µL/min/mg.

Past entries and their recorded results:
Oc1nc(-c2cc(-c3ccccn3)n(Cc3ccccc3F)n2)ncc1F: 39
Oc1nc(-c2cc(-c3ccon3)n(Cc3ncccc3F)n2)ncc1F: 7
Oc1nc(-c2cc(-c3ccon3)n(CCC(F)(F)F)n2)ncc1F: 32
CC(C)(O)c1cnc(-c2cc(-c3ccon3)n(Cc3ccccc3F)n2)nc1O: 8

Give measured microsomal CLint at 2 µM for every item shown.
1. O=C(Nc1cnc(-c2cc(-c3ccon3)n(Cc3ccccc3F)n2)nc1O)c1ccccc1
2. O=c1[nH]c(-c2cc(-c3ccon3)n(Cc3ccc(F)cc3F)n2)ncc1F
3. O=c1[nH]c(-c2cc(-c3ccon3)n(Cc3cccc(Cl)c3F)n2)ncc1F
4. N#Cc1cc(-c2ncc(F)c(=O)[nH]2)nn1Cc1ccccc1F
5. O=c1[nH]c(-c2cc(-c3ccon3)n(CCC(F)(F)C(F)(F)F)n2)ncc1F
6. O=S(=O)(c1ccccc1)c1cnc(-c2cc(-c3ccon3)n(Cc3ccccc3F)n2)nc1O
7. Oc1nc(-c2cc(-c3ccon3)n(Cc3ccccc3F)n2)ncc1Cl

**A:**
1: 26; 2: 4; 3: 2; 4: 9; 5: 4; 6: 27; 7: 5

# batch: return microsomal CLint at 2 µM for each of the 6 compounds below
1. Oc1nc(-c2cc(-c3ncco3)n(Cc3ccccc3F)n2)ncc1F
2. Cc1cccc(Cn2nc(-c3ncc(F)c(O)n3)cc2-c2ccon2)c1F
3. CN(C)S(=O)(=O)c1cnc(-c2cc(-c3ccon3)n(Cc3ccccc3F)n2)nc1O
4. Oc1nc(-c2cc(-c3cocn3)n(Cc3ccccc3F)n2)ncc1F
5. Oc1nc(-c2cc(-c3ccon3)n(Cc3ccccc3)n2)ncc1F
6. CN(c1ccccc1)S(=O)(=O)c1cnc(-c2cc(-c3ccon3)n(Cc3ccccc3F)n2)nc1O

**A:**
[68, 79, 24, 9, 10, 58]

* * *

# PROTOCOL_DETAILS: Thermodynamic solubility of the compound at pH 7.4
# Type: physicochemical
# EXPERIMENTAL_SETUP: buffer, read-out: Therm_solubility
QUANTITY: solubility thermodynamic (µg/mL)
Numbers only, in µg/mL.

**Q:** Can you look up the measured solubility thermodynamic of Oc1nc(-c2cc(-c3ccon3)n(Cc3ccccc3F)n2)ncc1F for me?
**A:** 3
